Where do these numbers come from? They come from patent US20100003217A1.

- System: Huh-7 cells
- Measurement description: Metabolic disposition of [^14C]-Compound 1 and [^14C]-2′-C-methyl guanosine in Huh-7 cells (incubation medium, cellular extracts, nucleotide levels)
- Assay type: in vitro ADME, human
- Recorded conditions: Huh7; 10 μM [^14C]-Compound 1; 48 h; second series
Quantity: Major metabolites observed in cellular extracts (% of total radioactivity)

Example entries and their recorded answers appear below.
[[record]]
compound = "C[C@@]1(O)[C@H](O)[C@@H](COP(=O)(O)OP(=O)(O)O)O[C@H]1n1cnc2c(=O)[nH]c(N)nc21"
target = "Huh-7 cells"
experimental_value = "6.42 % of total radioactivity"

[[record]]
compound = "C[C@@]1(O)[C@H](O)[C@@H](COP(=O)(O)O)O[C@H]1n1cnc2c(=O)[nH]c(N)nc21"
target = "Huh-7 cells"
experimental_value = "5.82 % of total radioactivity"

[[record]]
compound = "C[C@@]1(O)[C@H](O)[C@@H](CO)O[C@H]1n1cnc2c(=O)[nH]c(N)nc21 [2′-C-methyl guanosine, 9-(2-C-methyl-β-D-ribofuranosyl)guanine, reference compound]"
target = "Huh-7 cells"
experimental_value = "2.65 % of total radioactivity"

[[record]]
compound = "CC(C)(CO)C(=O)SCCOP(=O)(NCc1ccccc1)OC[C@H]1O[C@@H](n2cnc3c(=O)[nH]c(N)nc32)[C@](C)(O)[C@@H]1O (mixture of isomers)"
target = "Huh-7 cells"
experimental_value = "21.2 % of total radioactivity"


With those in mind, consider the next compound.
Bench note: what Major metabolites observed in cellular extracts (% of total radioactivity) did `C[C@@]1(O)[C@H](O)[C@@H](COP(=O)(O)OP(=O)(O)OP(=O)(O)O)O[C@H]1n1cnc2c(=O)[nH]c(N)nc21` show?
59.3 % of total radioactivity
